The origin of these recorded values is PubChem BioAssay (NCI).

Form field: growth inhibition (one value per entry).
assayExplanation: NCI Yeast Anticancer Drug Screen. Data for the rad14 strain (AID 159);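 also: 0% = growth of vehicle-treated control cultures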
appliedConditions: S. cerevisiae rad14 strain growth inhibition; at 1.2 µM; stronger effect = higher value
This is part of a sample that, as a whole, favours compounds with a hit. Of some 79,000 tested, about 15% had one in any assay.

compound	growth inhibition / %
CCCCCCOC(=O)NCCOC(=O)Nc1ccccc1	6
COc1ccc(C/C=N/Nc2ccc([N+](=O)[O-])cc2)cc1OC	3
Oc1ccc2ccccc2c1CCc1c(O)ccc2ccccc12	3
Nc1nc(N)c2nc(CNc3ccc(C(=O)NC(CCC(=O)O)C(=O)O)cc3F)cnc2n1 (stereo not drawn)	0
C=C1C(=O)OC2CC1C(OC(C)=O)C/C(C)=C/CC/C(C)=C\CCC2(C)O (stereo not drawn)	5
CC(/C=C/c1ccccc1)=N\NC(N)=S	-8
CCOC1=C/C(=N\Nc2ccc([N+](=O)[O-])cc2)CCC1	2
CN(C)c1ccc2c(SCC(=O)OCC(=O)[C@@]3(O)CC[C@H]4[C@@H]5CCC6=CC(=O)C=C[C@]6(C)[C@H]5C(=O)C[C@@]43C)c3ccc(N(C)C)cc3nc2c1	-12
COc1cccc2c1C(=O)c1c(O)c3c(c(O)c1C2=O)C[C@@](O)(C(C)=O)C[C@@H]3OC1CC(OC(C)=O)C(OC(C)=O)C(C)O1 (stereo partly drawn)	-35
O=C1N=C2SC=C(NC(=S)Nc3ccccc3)N2NC12c1ccccc1-c1ccccc12	10
O=P(NC1CCCCC1)(OCc1ccccc1)OCc1ccccc1	-1
CCOc1ccc(NC(=O)C2=C(C)NC(C)=C(C(=O)Nc3ccc(OCC)cc3)C2c2cccc([N+](=O)[O-])c2)cc1	-2
CC1OC(O[C@H]2/C=C/C=C/C=C/C=C/C=C/C=C/C=C/[C@H](C)[C@@H](O)[C@@H](C)[C@H](C)OC(=O)C[C@H](O)C[C@H](O)CC[C@@H](O)[C@H](O)C[C@H](O)C[C@]3(O)C[C@H](O)[C@@H](C(=O)O)[C@H](C2)O3)C(O)C(N)C1O (stereo partly drawn)	2
CC(NCCN(C)C)C1CCC2C3CCc4cc(O)ccc4C3CCC12C (stereo not drawn)	3
Cc1nc(-c2cc3cc([N+](=O)[O-])ccc3oc2=O)cs1	-1
O=[N+]([O-])c1cc[n+]([O-])cc1	-2
COC1=C(OC)C(=O)C(Sc2ccc3ccccc3c2)=CC1=O	-18
Cc1cc(N(CCOS(C)(=O)=O)CCOS(C)(=O)=O)ccc1C=Nc1ccc(-c2csc(-c3ccccc3)n2)c(Cl)c1	4
